Recorded protein stability index by entry
# Assay explanation: protein stability index of a GFP-peptide fusion (yeast GPS) (PSI 1-4); higher = more stable; sorted into four equal gates, so the index is relative within each strain
# Condition notes: doa10∆
Readout kind: protein stability index

Sequence content	Result number
INAEEIVDFTLPPPPPP [PRP8]	2.94
KAKERLQALKANDEEAY [SNF2]	1.81
FFYNISSIHWNNWFSLP [SIN4]	2.09
WNRADNHFKDTYGFSIL [FAS1]	3.07
MAISKNLPILKNHFRKH [RPL13A]	2.89
YDNEKTAELIKELKEKE [PUP2]	3.27
TARVMGGLKNGVLYQGN [DIS3]	3.19
NKQYHQANSNLTLLERK [NUT1]	2.34
KIFIAVVWYQRLTMGNV [RRI2]	1.3
NNKITQLIAKNVANVSG [SIR3]	1.7
AMIALSMILIQQTEKLN [RPN2]	1.32
IRDSIPQMDSFDKDLER [DIS3]	3.15
AVTHNLYYDEDINVESL [PUP2]	3.16
IGGMRVDENGDPIWQHQ [RET1]	3.13
ETERLISQSQLGKFKNI [SIN4]	3.09
VLQYSDWESDLHIHLNQ [YDL116W/NUP84]	2.48
AAGKRISHIEKRIESLQ [SMC1]	3.09
LTVDNLSIAIVGKDTPF [PRE5]	2.9
NLFSSTGFKGLLIELQA [SRB2]	2.6
NTSLISLFTYFREAIVA [PRP8]	1.3
KNMGLVPMKEENLEESF [SSN2]	3.07
VLKYMLLSKIMLNLIDD [RPN6]	2.04
KTTITRVEPETFEIPQA [SWI3]	2.38
QVGLNFELSFTGAPPYY [YMR129W/POM152]	2.35
GEMERDCMIAHGAASFL [RPB2]	3.04
AQDFKTDLRFQSSAIGA [HHT1]	1.32
AVARLKSMNKSAINQYN [SNF2]	1.81
QTQAIAQQQQLSNYPQQ [YGR119C/NUP57]	2.79
RPLQKIMLLQLELGSCF [SIN4]	1.41
EQDPYSNASQMGNTGSG [RPB3]	2.7
LSALNSEISSLKGKINN [SMC1]	3.03
TQPKSSSSMDMQANTNA [SSN3]	2.55
TNQKDTNDHVDKRTKID [ISW2]	2.77
MLTIARLGFFYNDQLYV [RPN7]	2.13
NVQTQYREAPVIYRGPE [RET1]	2.53
RGTDIDRINYTETALMN [SRB5]	3.02
YSSILGNSFNKSSNDTI [YCG1]	2.5
KRQYVKQFLTKDLKFPL [RPL20A]	3
WSKESNYDCKVISIVGG [PRP28]	3.06
KLDLFKYFTELSHYIRQ [MED1]	1.52
EEIVVVASADYESQTFS [PRP8]	3.14
LCYMAPMTVKLVQLPKS [POP3]	2.37
LLALRERRMQVTAEDFK [RPT2]	2.79
QAQAQVYAQQSTVQTPI [PGD1]	2.8
SHFSLDQFITSLKCTDP [ITC1]	2.09
LGMGKAVEKTLALGCHF [POP7]	1.98
KEVLPDLQNLNLNTDKL [YJL039C/NUP192]	3.38
ALLRPGRLDRKVEIPLP [RPT4]	2.99
KNLSLQTGTKPVLKKKA [COR1]	2.95
KMVIAELLPHYPFVTND [YJR042W/NUP85]	2.83
NIIASPLSAGFNYGKLP [SIN4]	2.62
TSAIEVLVGSCAYTGTG [RPN1]	3.06
QTRWGLPSGRQDGVLLV [FAS2]	1.65
IRGKILTGTVVSTKMHR [RPS11A]	3
DKLLDFIRYDVKTPKKT [CSN12]	2.73
NSAARNIQHLLYGKRFF [PRE7]	2.13
TNVNVKIKDVQQQIESN [SMC3]	3.19
LKHYNGYDINYISKIGE [SWI1]	2.81
IIGTFSDSYKVSLQNFS [RRP40]	2.11
DNIDYAPMRLATAALEI [YJL039C/NUP192]	2.35
